# METHOD: Inhibition of Saccharomyces cerevisiae alpha-glucosidase assessed as decrease in release of p-nitrophenol using pNPG as substrate preincubated for 15 min followed by substrate addition and measured after 5 mins by spectrophotometric method
MEASUREMENT_NAME: IC50 (µM)

| COMPOUND | MEASUREMENT_NAME | NUMERIC_READOUT |
| --- | --- | --- |
| COc1cc2cc(c1OC)Oc1ccc(cc1)CCCOC(=O)CC2 | IC50 | 72.3 |
| COc1cc2cc(c1OC)Oc1ccc(cc1)CCC(=O)OCCC2 | IC50 | 134 |

(I) COc1ccc2cc1Oc1ccc(cc1)CCCOC(=O)CC2
(II) O=C1CCc2ccc(O)c(c2)Oc2ccc(cc2)CCCO1 [CORNICULATOLIDE A]
(III) C[C@H]1O[C@H](O[C@H]2[C@H](O)[C@@H](O)[C@@H](O[C@H]3[C@H](O)[C@@H](O)C(O)O[C@@H]3CO)O[C@@H]2CO)[C@H](O)[C@@H](O)[C@@H]1N[C@H]1C=C(CO)[C@@H](O)[C@H](O)[C@H]1O (stereo partly drawn)
(IV) O=C1CCc2cc(O)c(O)c(c2)Oc2ccc(cc2)CCCO1
stdin: List these items ordered by IC50, big to small. Write the labels in rank order as requested.
stdout: II, I, IV, III
